# method: LNP Zeta potential measured using a Zetasizer (Malvern)
# Type: physicochemical
# measurement.conditions: Table 6; LNP 50:10:38.5:1.5 mol %; hEPO mRNA; N:P 6
observable: Zeta potential (mV)

CCCCCCCCC(CCCCCC)C(=O)OCCN(CCOC(=O)C(CCCCCC)CCCCCCCC)C(=O)CCCN(C)C (stereo not drawn) | −1.9
CCCCCCCCC(CCCCCC)C(=O)OCCN(CCOC(=O)C(CCCCCC)CCCCCCCC)C(=O)CCN (stereo not drawn) | −1.5
CCCCCCCCC(CCCCCC)C(=O)OCCN(CCOC(=O)C(CCCCCC)CCCCCCCC)C(=O)CCCN (stereo not drawn) | −1.7

1. CCCCCCCCC(CCCCCC)C(=O)OCCN(CCOC(=O)C(CCCCCC)CCCCCCCC)C(=O)CC(C)N (stereo not drawn)
2. CCCCCCCCC(CCCCCC)C(=O)OCCN(CCOC(=O)C(CCCCCC)CCCCCCCC)C(=O)CCN(C)C (stereo not drawn)
3. CCCCCCCCC(CCCCCC)C(=O)OCCN(CCOC(=O)C(CCCCCC)CCCCCCCC)C(=O)CCC(C)N (stereo not drawn)
In this exercise, place the 3 compounds in ascending sequence of their recorded Zeta potential. Dear reader, please state the labels in the requested order. 1, 2, 3

----------
# method: LNP size and polydispersity index (PDI) by dynamic light scattering (DLS)
# Type: physicochemical
# measurement.conditions: Table 8; LNP Lipid:DSPC:Cholesterol:DMG-PEG2k 50:10:38.5:1.5 mol %; hEPO mRNA; N:P 6
observable: Size (nm)

CCCCCCCCC(CCCCCC)C(=O)OCCN(CCOC(=O)C(CCCCCC)CCCCCCCC)C(=O)C(C)CNC.Cl (stereo not shown) | 87.2
CCCCCCCCC(CCCCCC)C(=O)OCCN(CCOC(=O)C(CCCCCC)CCCCCCCC)C(=O)CCCN(C)CCO.Cl (stereo not shown) | 112.9
CCCCCCCCC(CCCCCC)C(=O)OCCN(CCOC(=O)C(CCCCCC)CCCCCCCC)C(=O)CCCN(C)C (stereo not shown) | 125.8
CCCCCCCCC(CCCCCC)C(=O)OCCN(CCOC(=O)C(CCCCCC)CCCCCCCC)C(=O)CCNCC.Cl (stereo not shown) | 70.4
CCCCCCCCC(CCCCCC)C(=O)OCCN(CCOC(=O)C(CCCCCC)CCCCCCCC)C(=O)CCCN(C)CCC.Cl (stereo not shown) [Compound 939] | 103.5

1. CCCCCCCCC(CCCCCC)C(=O)OCCN(CCOC(=O)C(CCCCCC)CCCCCCCC)C(=O)CCCN(C)CCC.Cl (stereo not shown) [Compound 938]
2. CCCCCCCCC(CCCCCC)C(=O)OCCN(CCOC(=O)C(CCCCCC)CCCCCCCC)C(=O)CCNCCC.Cl (stereo not shown)
Lowest Size? choose 1 or 2 Your answer should be the label attached to the chosen record. 2

----------
# method: LNP size and polydispersity index (PDI) by dynamic light scattering (DLS)
# Type: physicochemical
# measurement.conditions: Table 10; LNP with hEPO mRNA, Lipid:DSPC:Cholesterol:DMG-PEG2k 50:10:38.5:1.5 mol %, N:P ratio 6; DLS
observable: Size (nm)

P. CCCCCCCC/C=C\CCCCCCCC(=O)OCCN(CCOC(=O)C(CCCCCC)CCCCCCCC)C(=O)CCN1CCCCC1 (stereo not drawn) [Compound 917h]
Q. CCCCCCCCCC(CCCCCCCCC)C(=O)OCCN(CCOC(=O)C(CCCCCCCCC)CCCCCCCCC)C(=O)CCN(CC)CC [Compound 917f]
# argmax over Size (nm) for candidates P and Q Your answer should be the label attached to the chosen record. P
(P: 89.6 nm, Q: 51.5 nm)
